Origin of values: PubChem BioAssay AID1963975

test system: 624824-186-R-J2-PDC multicell spheroids, viability; test: Anticancer human tumor 624824-186-R-J2-PDC patient-derived colon adenocarcinoma cell line growth inhibition [PI3K]; conditions: second compound 0.0316 µM; first compound 1 µM; stronger effect = lower value;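 also: spheroids exposed to agents for 7 days before viability read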
Doc: threshold 80% (exclusive). Items with viability, T/C beneath it return TRUE; others return FALSE.

Query: Input CCN1CCN(Cc2ccc(Nc3ncc(F)c(-c4cc(F)c5nc(C)n(C(C)C)c5c4)n3)nc2)CC1 + Cc1nc(NC(=O)N2CCCC2C(N)=O)sc1-c1ccnc(C(C)(C)C(F)(F)F)c1 ; condition: viability, T/C strictly below 80%. Does it hold?
Reply: FALSE

Query: Input C[C@@H](NC(=O)c1ncnc(N)c1Cl)c1ncc(C(=O)Nc2cc(C(F)(F)F)c(Cl)cn2)s1 + CC(Nc1ncnc2nc[nH]c12)c1cc2cccc(Cl)c2c(=O)n1-c1ccccc1 ; condition: viability, T/C strictly below 80%. Does it hold?
Reply: TRUE

Query: Input CC(C)NCC(C(=O)N1CCN(c2ncnc3c2C(C)CC3O)CC1)c1ccc(Cl)cc1 (stereo unspecified) + Cc1nc(NC(=O)N2CCCC2C(N)=O)sc1-c1ccnc(C(C)(C)C(F)(F)F)c1 ; condition: viability, T/C strictly below 80%. Does it hold?
Reply: FALSE

Query: Input C=CC(=O)N1CCN(c2nc(=O)n(-c3c(C)ccnc3C(C)C)c3nc(-c4c(O)cccc4F)c(F)cc23)C(C)C1 (stereo unspecified) + CC(Nc1ncnc2nc[nH]c12)c1cc2cccc(Cl)c2c(=O)n1-c1ccccc1 ; condition: viability, T/C strictly below 80%. Does it hold?
Reply: FALSE

Query: Input C[C@@H](NC(=O)c1ncnc(N)c1Cl)c1ncc(C(=O)Nc2cc(C(F)(F)F)c(Cl)cn2)s1 + Cc1nc(NC(=O)N2CCCC2C(N)=O)sc1-c1ccnc(C(C)(C)C(F)(F)F)c1 ; condition: viability, T/C strictly below 80%. Does it hold?
Reply: FALSE
